Origin of measurements: the supplement of paper PMC9112550

System: Escherichia coli TOP10;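 also: peptides expressed intracellularly from a pBAD plasmid library in pooled LB shake-flask culture, induced with 0.3% L-arabinose, DNA abundance read by NGS, three biological replicates, DESeq2 with apeglm shrinkage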
procedureDetails: shrunken log2 fold change of peptide-encoding DNA abundance (4.5 h post-induction vs induction); higher = less antimicrobial activity (less host growth inhibition)
recordedConditions: time post-induction: 4.5 h; library: site-saturation at positions 5, 18, 19, 20
Classification field: rule met = shrunken log2 fold change at or over -0.03; rule not met = shrunken log2 fold change under -0.03.

Would you please look over these solved cases?
biopolymerSequence | labelClass
RRIRDRPPRLPRPRPRPFWFPRP | rule met
RRIRRRPPRLPRPRPRPWSCPRP | rule met
RRIRHRPPRLPRPRPRPKRCPRP | rule not met

We now examine a further sequence.
Query block: Textbook exercise: given the entry RRIRVRPPRLPRPRPRPGTHPRP , state whether its shrunken log2 fold change is greater than or equal to -0.03.
Result block: rule not met
